STUDY_TARGET: Xanthine Oxidase (from buttermilk) (Bos taurus)
Construct: Xanthine Oxidase (from buttermilk, Sigma Co., Ltd. X4875); purchased Sigma Co., Ltd. X4875; host or cells: buttermilk
Sequence (P80457 whole entry): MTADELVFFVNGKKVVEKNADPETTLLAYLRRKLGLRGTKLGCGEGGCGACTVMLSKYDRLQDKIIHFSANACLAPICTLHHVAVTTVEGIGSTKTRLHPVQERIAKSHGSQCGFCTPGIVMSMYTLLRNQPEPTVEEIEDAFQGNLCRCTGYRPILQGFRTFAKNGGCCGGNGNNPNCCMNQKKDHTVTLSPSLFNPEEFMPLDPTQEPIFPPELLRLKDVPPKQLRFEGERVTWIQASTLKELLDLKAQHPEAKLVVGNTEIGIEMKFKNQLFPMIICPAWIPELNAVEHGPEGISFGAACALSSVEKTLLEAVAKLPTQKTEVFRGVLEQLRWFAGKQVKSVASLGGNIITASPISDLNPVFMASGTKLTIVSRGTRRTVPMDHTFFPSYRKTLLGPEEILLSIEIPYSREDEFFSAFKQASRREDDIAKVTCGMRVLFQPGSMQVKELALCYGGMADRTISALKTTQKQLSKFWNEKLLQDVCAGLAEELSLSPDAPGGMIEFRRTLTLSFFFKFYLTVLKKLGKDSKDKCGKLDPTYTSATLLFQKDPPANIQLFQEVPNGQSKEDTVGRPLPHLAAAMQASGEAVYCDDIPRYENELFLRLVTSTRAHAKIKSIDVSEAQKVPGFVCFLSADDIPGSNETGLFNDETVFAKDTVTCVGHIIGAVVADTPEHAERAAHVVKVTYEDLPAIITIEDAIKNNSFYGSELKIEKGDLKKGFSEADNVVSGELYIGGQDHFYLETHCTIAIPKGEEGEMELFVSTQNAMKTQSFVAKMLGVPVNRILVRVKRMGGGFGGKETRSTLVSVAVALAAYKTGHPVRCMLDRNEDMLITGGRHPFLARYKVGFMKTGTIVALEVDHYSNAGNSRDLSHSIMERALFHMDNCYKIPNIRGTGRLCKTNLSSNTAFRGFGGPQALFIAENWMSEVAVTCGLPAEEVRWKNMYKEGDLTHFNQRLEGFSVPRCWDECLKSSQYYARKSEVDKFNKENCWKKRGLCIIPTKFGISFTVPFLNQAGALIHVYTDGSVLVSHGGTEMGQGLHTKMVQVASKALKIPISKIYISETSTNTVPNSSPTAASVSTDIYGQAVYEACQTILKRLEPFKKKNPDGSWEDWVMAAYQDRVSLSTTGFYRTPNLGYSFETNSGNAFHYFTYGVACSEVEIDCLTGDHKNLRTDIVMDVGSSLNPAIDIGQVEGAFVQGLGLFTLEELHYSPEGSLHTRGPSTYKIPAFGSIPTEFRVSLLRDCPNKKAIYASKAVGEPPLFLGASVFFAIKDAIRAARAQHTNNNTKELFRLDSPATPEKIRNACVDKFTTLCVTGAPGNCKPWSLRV
ASSAY_METHOD_TEXT: In vitro XOD inhibitory activity (Xanthine Oxidase Detection Kit)
Type: biochemical
TEST_PARAMETERS: read-out: XOD inhibitory activity IC50; seven concentrations; mean ± SD of triplicate independent experiments; – = not active
Grouping key: IC50. Bins: bottom end: < 8 µM; midrange: ≥ 8 µM and < 30 µM; top end: ≥ 30 µM

INSERT INTO assay_data (compound, label_class) VALUES
  ('OC[C@H]1O[C@@H](OCC=Cc2ccc(Br)cc2)[C@H](O)[C@@H](O)[C@@H]1O [Compound 10l, 4-Bromocinnamyl β-D-glucopyranoside]', 'midrange'),
  ('OC[C@H]1O[C@@H](OCC=Cc2ccc(F)c(F)c2)[C@H](O)[C@@H](O)[C@@H]1O [Compound 10k, 3,4-Difluorocinnamyl β-D-glucopyranoside]', 'top end'),
  ('OC[C@H]1O[C@@H](OCC=Cc2ccc(Cl)cc2)[C@H](O)[C@@H](O)[C@@H]1O [Compound 10j, 4-Chlorocinnamyl β-D-glucopyranoside]', 'midrange'),
  ('O[C@@H]1[C@@H](O)[C@H](OCC=Cc2ccccc2)O[C@H](CO[C@@H]2OC[C@@H](O)[C@H](O)[C@H]2O)[C@H]1O [Compound 21]', 'bottom end'),
  ('COc1ccc(C=CCO[C@@H]2O[C@H](CO)[C@@H](O)[C@H](O)[C@H]2O)cc1O [Compound 16d]', 'midrange'),
  ('OC[C@H]1O[C@@H](OC/C=C/c2ccccc2)[C@H](O)[C@@H](O)[C@@H]1O [Compound 10m, Cinnamyl β-D-glucopyranoside]', 'top end'),
  ('COc1ccc(C=CCO[C@@H]2O[C@H](CO[C@@H]3OC[C@H](O)[C@H](O)[C@H]3O)[C@@H](O)[C@H](O)[C@H]2O)cc1 [Compound 22]', 'bottom end');

Value source: paper PMC6263338
